I'd be grateful if you could share measured TGI for these entries.
System: U251 CNS
RUN DESCRIPTION: NCI tumour cell line growth inhibition, 48 h

Exam item: Given Cc1ccc2c(=O)cc(-c3sccc3C)[nH]c2n1 , state its recorded TGI.
Marked response: > 33.6 µM

Exam item: Similarly, Clc1c(Cl)[n+](Cc2ccc3ccccc3c2)cn1Cc1ccc2ccccc2c1 ?
Marked response: 2.94 µM

Exam item: Field entry: O=c1nc2n3c4c(cccc4nc-2c(=O)[nH]1)CCC3
Marked response: > 100 µM

Exam item: What do you get for N#CC(c1ccccc1)N(CCCCCCN(C(=O)c1ccccc1)C(C#N)c1ccccc1)C(=O)c1ccccc1 (stereo not drawn) ?
Marked response: > 100 µM

Exam item: Moving on to O=C(C(=O)c1cc2ccccc2[nH]1)c1cc2ccccc2[nH]1
Marked response: > 347 µM

Exam item: What would you report for COc1ccc(C2(Cl)c3ccccc3N(c3ccccc3)c3ccccc32)cc1 ?
Marked response: 1.29 µM

Exam item: Can you check CC[C@H](C)[C@H](NC(=O)[C@H]1CCCCN1C)C(=O)N(C)[C@H](C[C@@H](OC(C)=O)c1cccc(C(=O)N[C@@H](Cc2ccccc2)C[C@H](C)C(=O)OC)n1)C(C)C next?
Marked response: > 25 µM

Exam item: Same read-out for OCC1C(OCc2ccccc2)C(OCc2ccccc2)C(OCc2ccccc2)CN1Cc1ccccc1 (stereo not drawn) ?
Marked response: > 100 µM

Exam item: Next molecule up: O=C(COc1ccc(Cl)c(Cl)c1)Nc1ccc[n+](Cc2ccc(S(=O)(=O)F)c(Cl)c2)c1
Marked response: > 100 µM

Exam item: Then CNC(=O)c1c(C)oc2cc(Oc3ncnc4cc(OC)c(OC)cc34)ccc12 ?
Marked response: > 100 µM

Exam item: Also need Fc1ccc(-c2c(-c3ccncc3)nc3n2CCS3)cc1 , thanks.
Marked response: > 25 µM

Exam item: Proceed to Oc1ccc(C=Nc2ccccc2O)cc1
Marked response: > 100 µM

Exam item: Now try c1csc(-c2nn3c(C45CC6CC(CC(C6)C4)C5)nnc3s2)c1 .
Marked response: > 100 µM

Exam item: Then Cc1ccc(O)c(C(c2cccc(C(c3cc(C)ccc3O)c3cc(C)ccc3O)c2)c2cc(C)ccc2O)c1 ?
Marked response: 3.32 µM

Exam item: Then this molecule: Cc1cc2nc(NCCN)n(Cc3ccc(F)c(Cl)c3)c2cc1C
Marked response: 25.1 µM

Exam item: Also CCOC(=O)Cc1c(C)c2cc(C(=O)c3ccccc3)c(O)cc2oc1=O ?
Marked response: 74.2 µM

Exam item: # repeat for CCOC(OC(C)=O)[C@@H]1C=C[C@H](C)N(c2ccc([N+](=O)[O-])cc2)O1 (stereo partly drawn)
Marked response: 9 µM

Exam item: Again, but for Cc1onc(-c2ccccc2)c1C(=O)N/N=C/c1cc(Cl)cc(Cl)c1O
Marked response: 57.6 µM

Exam item: Lookup CO/C=C/C=C(\C#N)C(=O)OC
Marked response: > 100 µM

Exam item: Moving on to the next molecule: Cc1cc(S(=O)(=O)NC2=NCc3nc4ccccc4n32)c(S)cc1Cl
Marked response: > 100 µM

Exam item: Next molecule: CC(=O)Oc1ccccc1
Marked response: > 100 µM

Exam item: Another molecule to check: COc1ccc(C2SC(N)=Nc3c2c(C)nn3C(=O)c2ccccc2O)cc1OC (stereo not drawn)
Marked response: > 10 µM

Exam item: Ok, now Cc1ccc2c(c1)C(=C(C#N)C#N)CCCS2(=O)=O
Marked response: > 100 µM

From: PubChem BioAssay (NCI)
